target: 5-hydroxytryptamine receptor 2A (Homo sapiens)
Sequence (P28223 whole entry): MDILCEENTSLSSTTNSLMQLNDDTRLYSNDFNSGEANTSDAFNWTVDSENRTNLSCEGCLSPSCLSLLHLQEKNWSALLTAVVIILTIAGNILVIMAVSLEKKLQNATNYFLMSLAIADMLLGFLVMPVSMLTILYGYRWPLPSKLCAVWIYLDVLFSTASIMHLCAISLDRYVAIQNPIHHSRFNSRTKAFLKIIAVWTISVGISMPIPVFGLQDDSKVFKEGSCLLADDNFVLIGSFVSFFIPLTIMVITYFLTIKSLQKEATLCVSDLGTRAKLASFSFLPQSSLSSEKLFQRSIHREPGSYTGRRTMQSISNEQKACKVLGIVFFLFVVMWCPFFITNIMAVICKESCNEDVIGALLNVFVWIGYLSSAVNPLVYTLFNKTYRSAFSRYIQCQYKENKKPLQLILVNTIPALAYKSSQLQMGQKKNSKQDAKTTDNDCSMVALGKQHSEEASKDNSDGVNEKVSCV
Assay readout: Ki (nM)
Provide the reading as a plain figure in nM.

Qu. Entry CCC1(CCCCN2CCN(c3ccc(Cl)cc3)CC2)C(=O)Nc2cc(F)ccc21 (stereo unspecified) , system 5-hydroxytryptamine receptor 2A (Homo sapiens): what Ki was measured?
Ans. 19.4

====

target: 5-hydroxytryptamine receptor 7 (Homo sapiens); test: Displacement of [3H]LSD from human recombinant 5HT7 receptor expressed in CHO cells; format: cell-based; conditions: read-out: Ki
Sequence (P34969 whole entry): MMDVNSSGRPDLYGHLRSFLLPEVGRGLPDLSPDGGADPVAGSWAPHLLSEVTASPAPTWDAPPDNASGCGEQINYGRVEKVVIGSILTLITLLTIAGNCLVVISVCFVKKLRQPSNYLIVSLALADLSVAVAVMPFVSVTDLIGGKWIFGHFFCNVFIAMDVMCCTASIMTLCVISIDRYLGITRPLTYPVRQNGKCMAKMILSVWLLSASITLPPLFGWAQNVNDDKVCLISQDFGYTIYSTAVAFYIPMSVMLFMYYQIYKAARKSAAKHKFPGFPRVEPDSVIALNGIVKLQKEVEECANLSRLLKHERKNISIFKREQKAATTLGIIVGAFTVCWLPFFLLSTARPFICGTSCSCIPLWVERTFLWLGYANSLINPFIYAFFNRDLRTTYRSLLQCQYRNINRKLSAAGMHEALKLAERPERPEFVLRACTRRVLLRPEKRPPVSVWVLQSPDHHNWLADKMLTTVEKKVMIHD
Assay readout: pKi
Friendly reminder that pKi comes from taking -log10 of the concentration in mol/L.

{"Compound": "O=C1Nc2ccc(F)cc2C1CCCCN1CCN(c2ccccc2)CC1 (stereo not given)", "Assay readout": "pKi", "Observed measurement": 7.36}
{"Compound": "CCC1(CCCCN2CCN(c3ccc(Cl)cc3)CC2)C(=O)Nc2cc(F)ccc21 (stereo not given)", "Assay readout": "pKi", "Observed measurement": 9.10}
{"Compound": "CCC1(CCCCN2CCN(c3cccc(Cl)c3)CC2)C(=O)Nc2cc(F)ccc21 (stereo not given)", "Assay readout": "pKi", "Observed measurement": 9.17}
{"Compound": "CCC1(CCCCN2CCN(c3ccc(Cl)cc3)CC2)C(=O)Nc2ccccc21 (stereo not given)", "Assay readout": "pKi", "Observed measurement": 9.42}
{"Compound": "CCC1(CCCCN2CCN(c3ccc(Cl)cc3)CC2)C(=O)Nc2ccc(Cl)cc21 (stereo not given)", "Assay readout": "pKi", "Observed measurement": 8.43}

Qu. Any idea what pKi was measured for CCC1(CCCCN2CCN(c3ccc(F)c(Cl)c3)CC2)C(=O)Nc2ccccc21 (stereo not given) ?
Ans. 9.22

Qu. Also need CC(C)CC1(CCCCN2CCN(c3cccc(Cl)c3)CC2)C(=O)Nc2ccccc21 (stereo not given) , thanks.
Ans. 8.74

Qu. Another compound to check: CCC1(CCCCN2CCN(c3ccccc3OC)CC2)C(=O)N(Cc2ccccc2)c2ccccc21 (stereo not given)
Ans. 8.18

Qu. Continue with CCC1(CCCN2CCN(c3cccc(Cl)c3)CC2)C(=O)Nc2ccccc21 (stereo not given)
Ans. 7.68

Qu. Param item: CCC1(CCCCN2CCN(c3ccc(F)cc3)CC2)C(=O)Nc2ccc(F)cc21 (stereo not given)
Ans. 8.82

====

test: Oral bioavailability in rat; format: ADME, organism-based; conditions: in vivo
Assay readout: bioavailability (%)
Return type: number; implicit unit %.

Qu. Query: bioavailability; subject: O=C1Nc2ccc(Cl)c3c2C1(CCCCN1CC=C(c2ccc(Cl)cc2)CC1)CCC3 (stereo unspecified)
Ans. 18

====

Molecular target: 5-hydroxytryptamine receptor 1A (Rattus norvegicus) (UniProt P19327)
Sequence (whole entry): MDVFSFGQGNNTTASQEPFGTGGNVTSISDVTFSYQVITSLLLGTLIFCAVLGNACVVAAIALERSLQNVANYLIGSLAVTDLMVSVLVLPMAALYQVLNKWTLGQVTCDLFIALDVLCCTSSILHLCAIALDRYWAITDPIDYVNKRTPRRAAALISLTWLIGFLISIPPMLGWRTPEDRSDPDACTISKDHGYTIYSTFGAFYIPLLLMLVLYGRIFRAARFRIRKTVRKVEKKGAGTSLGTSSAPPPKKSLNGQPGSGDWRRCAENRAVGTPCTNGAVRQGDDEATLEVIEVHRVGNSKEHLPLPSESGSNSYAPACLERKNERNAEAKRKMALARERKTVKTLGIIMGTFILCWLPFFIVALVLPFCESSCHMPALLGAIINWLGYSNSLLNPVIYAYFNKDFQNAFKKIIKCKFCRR
Test: Displacement of [3H]8-OH-DPAT from 5HT1A receptor in rat frontal cortex membrane at 0.1 uM
Assay type: cell membranes
Overview of recorded Activity for various compounds
Express your answer in %, writing the number without its unit.

{"Compound": "CCC1(CCCCN2CCN(c3ccc(Cl)cc3)CC2)C(=O)Nc2ccccc21 (stereo not given)", "Activity, %": 11}
{"Compound": "CCC1(CCCCN2CCc3ccccc3C2)C(=O)Nc2ccccc21 (stereo not given)", "Activity, %": 52}
{"Compound": "O=C1Nc2ccccc2C1CCCCN1CCN(c2ccc(Cl)cc2)CC1 (stereo not given)", "Activity, %": 10}
{"Compound": "CCC1(CCCCN2CC=C(c3ccc(Cl)cc3)CC2)C(=O)Nc2ccccc21 (stereo not given)", "Activity, %": 10}

Okay, next one:
Qu. Give its Activity value. Item: CCC1(CCCCN2CCN(c3cccc(Cl)c3)CC2)C(=O)Nc2c(Cl)cc(F)cc21 (stereo not given)
Ans. 31

====

Collected Stability values appear next to each entry.
species on record: Rattus norvegicus; experiment: Metabolic stability in rat; type: ADME, organism-based; settings: in vitro
Answer format: numeric, % implied, no suffix.

Worked cases, Stability given:
{"Compound": "O=C1Nc2ccc(F)cc2C1CCCCN1CCN(c2ccc(F)cc2)CC1 (centres undefined)", "Assay readout": "Stability", "Observed measurement": 40}
{"Compound": "CCC1(CCCCN2CCN(c3ccc(Cl)cc3)CC2)C(=O)Nc2ccccc21 (centres undefined)", "Assay readout": "Stability", "Observed measurement": 9}
{"Compound": "CCC1(CCCCN2CCN(c3ccc(Cl)cc3)CC2)C(=O)Nc2c(Cl)cc(Cl)cc21 (centres undefined)", "Assay readout": "Stability", "Observed measurement": 76}

Qu. Consider the compound shown here: CCC1(CCCCN2CCN(c3cccc(Cl)c3)CC2)C(=O)Nc2ccccc21 (centres undefined) What is its recorded Stability?
Ans. 4

====

Target: 5-hydroxytryptamine receptor 1A (Rattus norvegicus)
Sequence (whole entry): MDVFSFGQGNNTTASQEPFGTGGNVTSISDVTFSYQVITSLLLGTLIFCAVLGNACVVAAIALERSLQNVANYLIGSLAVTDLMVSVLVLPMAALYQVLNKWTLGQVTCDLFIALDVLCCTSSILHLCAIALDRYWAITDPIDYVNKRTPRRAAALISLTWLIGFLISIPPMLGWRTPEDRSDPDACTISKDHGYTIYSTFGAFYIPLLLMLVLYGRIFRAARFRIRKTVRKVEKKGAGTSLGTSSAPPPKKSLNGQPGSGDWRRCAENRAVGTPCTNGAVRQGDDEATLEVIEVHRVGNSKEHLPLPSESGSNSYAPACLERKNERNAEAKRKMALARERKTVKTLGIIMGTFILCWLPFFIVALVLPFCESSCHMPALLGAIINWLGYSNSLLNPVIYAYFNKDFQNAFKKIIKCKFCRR
Experiment: Displacement of [3H]8-OH-DPAT from 5HT1A receptor in rat frontal cortex membrane at 0.1 uM
Type: cell membranes
Assay readout: Activity

{"Compound": "CCC1(CCCCN2CCN(c3cccc(Cl)c3)CC2)C(=O)Nc2cc(F)ccc21 (stereo not given)", "Observed measurement": "37%"}

Qu. So what does the record say about Activity for CCC1(CCCCN2CCN(c3ccccc3OC)CC2)C(=O)Nc2ccccc21 (stereo not given) ?
Ans. 79%

Qu. Repeat for the following compound: CCC1(CCCCN2CCN(c3cccc(OC)c3)CC2)C(=O)Nc2ccccc21 (stereo not given)
Ans. 33%

Qu. Check CCC1(CCCCN2CCN(c3cccc(Cl)c3)CC2)C(=O)Nc2cc(F)c(Cl)cc21 (stereo not given) too.
Ans. 16%

Qu. // query: CCC1(CCCCN2CCN(c3cccc(Cl)c3)CC2)C(=O)Nc2ccccc21 (stereo not given)
Ans. 42%

====

target: UniProt:P19327; test: Displacement of [3H]8-OH-DPAT from 5HT1A receptor in rat frontal cortex membrane at 0.1 uM; format: cell membranes
Recorded Activity, one value per entry.
Output spec: scalar in %, unitless text.

{"Compound": "CCC1(CCCCN2CCN(c3cccc(Cl)c3)CC2)C(=O)Nc2c(Cl)cc(Cl)cc21 (stereo unspecified)", "Unit of measure": "%", "Observed measurement": 7}
{"Compound": "O=C1Nc2ccc(F)cc2C1CCCCN1CCN(c2ccccc2)CC1 (stereo unspecified)", "Unit of measure": "%", "Observed measurement": 33}
{"Compound": "CCC1(CCCCN2CCc3sccc3C2)C(=O)Nc2ccccc21 (stereo unspecified)", "Unit of measure": "%", "Observed measurement": 29}

Qu. Consider the compound CCC1(CCCCN2CCN(c3ccc(F)cc3)CC2)C(=O)Nc2ccc(F)cc21 (stereo unspecified) and give its measured Activity.
Ans. 7

Qu. Thanks! And CCC1(CCCCN2CCN(c3ccc(Cl)cc3)CC2)C(=O)Nc2c(Cl)cc(F)cc21 (stereo unspecified) ?
Ans. 0

Qu. Further, for CCC1(CCCCN2CCN(c3cccc(Cl)c3)CC2)C(=O)Nc2ccc(F)cc21 (stereo unspecified) ?
Ans. 24

Qu. What do we get for CCC1(CCCCCN2CCN(c3cccc(Cl)c3)CC2)C(=O)Nc2ccccc21 (stereo unspecified) ?
Ans. 43

Qu. Further, for CCC1(CCCCN2CCN(c3ccc(F)cc3)CC2)C(=O)Nc2ccccc21 (stereo unspecified) ?
Ans. 10

Qu. Query CCC1(CCCCN2CCN(c3ccc(Cl)cc3)CC2)C(=O)Nc2cc(F)ccc21 (stereo unspecified) next
Ans. 9

Qu. And the next one, O=C1Nc2ccc(F)cc2C1CCCCN1CCN(c2ccc(F)cc2)CC1 (stereo unspecified) ?
Ans. 6

Qu. Next compound: CCC1(CCCCN2CCN(c3ccc(Cl)cc3)CC2)C(=O)Nc2ccc(F)cc21 (stereo unspecified)
Ans. 9

Qu. And for CCC1(CCCN2CCN(c3cccc(Cl)c3)CC2)C(=O)Nc2ccccc21 (stereo unspecified) ?
Ans. 91

Qu. Check CCC1(CCCCN2CCN(c3ccccc3)CC2)C(=O)N(C)c2ccccc21 (stereo unspecified) too.
Ans. 42

Qu. What about this compound? CCC1(CCCCN2CCN(c3ccccc3Cl)CC2)C(=O)Nc2ccccc21 (stereo unspecified)
Ans. 51

Qu. Entry CCC1(CCCCN2CCC(C)CC2)C(=O)Nc2ccccc21 (stereo unspecified) please
Ans. 0

Qu. Similarly, CCC1(CCCCN2CCN(c3ccc(Cl)cc3)CC2)C(=O)Nc2ccc(Cl)cc21 (stereo unspecified) ?
Ans. 0

Qu. Input CCC1(CCCCN2CCN(c3ccc(OC)cc3)CC2)C(=O)Nc2ccccc21 (stereo unspecified)
Ans. 24
